# tested-target: T1, His-tagged human MET antigen (human, UniProt P08581 25-932)
# T1 construct: Soluble antigen used as analyte in SPR; not shown: His tag
# T1 sequence (P08581 25-932 limits assumed): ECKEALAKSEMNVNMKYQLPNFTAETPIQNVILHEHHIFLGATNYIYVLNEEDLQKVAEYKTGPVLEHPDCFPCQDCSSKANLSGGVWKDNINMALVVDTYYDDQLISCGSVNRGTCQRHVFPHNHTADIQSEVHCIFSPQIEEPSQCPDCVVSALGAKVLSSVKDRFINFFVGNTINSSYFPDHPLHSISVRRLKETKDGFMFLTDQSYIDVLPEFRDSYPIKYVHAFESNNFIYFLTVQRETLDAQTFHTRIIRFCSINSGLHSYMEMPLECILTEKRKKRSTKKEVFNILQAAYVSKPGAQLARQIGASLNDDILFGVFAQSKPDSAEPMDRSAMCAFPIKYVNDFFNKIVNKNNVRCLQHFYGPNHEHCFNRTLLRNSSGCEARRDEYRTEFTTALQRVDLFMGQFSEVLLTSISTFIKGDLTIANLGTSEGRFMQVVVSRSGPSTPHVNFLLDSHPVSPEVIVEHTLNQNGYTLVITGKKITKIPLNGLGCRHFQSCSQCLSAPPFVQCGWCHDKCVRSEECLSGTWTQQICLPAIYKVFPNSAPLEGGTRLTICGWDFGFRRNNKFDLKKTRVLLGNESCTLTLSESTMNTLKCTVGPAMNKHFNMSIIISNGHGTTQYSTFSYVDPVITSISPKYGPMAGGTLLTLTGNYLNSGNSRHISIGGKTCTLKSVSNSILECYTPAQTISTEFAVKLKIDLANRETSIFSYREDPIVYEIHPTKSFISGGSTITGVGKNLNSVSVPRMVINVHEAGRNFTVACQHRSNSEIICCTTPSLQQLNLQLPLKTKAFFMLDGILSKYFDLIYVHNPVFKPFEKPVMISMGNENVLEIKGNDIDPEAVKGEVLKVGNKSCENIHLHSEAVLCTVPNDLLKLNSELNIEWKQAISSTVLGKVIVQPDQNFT
# assay-method-text: SPR, Biacore 8K; antibody captured, His-tagged human MET antigen 6.25-400 nM as analyte; 1:1 Langmuir
observable: koff (s⁻¹)

>>> result_value("Antibody A13 N30S (antibody, human IgG1, kappa, V domains shown, Differs from antibody A13 only by N to S at position 30 of VL) VH: QVQLVQSGAEVKKPGASVKVSCEASGYTFTSYGFSWVRQAPGQGLEWMGWISASNGNTYYAQKLQGRVTMTTDTSTSSAYMELRSLRSDDTAVYYCARVYADYADYWGQGTLVTVSS VL: DIQMTQSPSSVSASVGDRVTITCRASQGISTWLAWYQQKPGKAPKLLIYAASSLKSGVPSRFSGSGSGADFTLTISSLQPEDFATYYCQQANSFPLTFGGGTKVEIKR")
0.000776
